test system: rodent lifetime carcinogenesis bioassay, tumor incidence TD50; experiment: carcinogenic potency in animals, long-term in vivo studies, CPDB compilation (AID 1745844); conditions: mouse; strain B6C3F1; males; oral dosing; site: all sites; lesion: reticulum-cell sarcoma; dosed 76 weeks; study length 76 weeks
reportedMetric: TD50 (mg/kg/day)
Report the value in mg/kg/day with no unit label.

Example entries and their recorded answers appear below.
> print(dat)
                                   molecule                                systemname  reportedmetric  numericvalue
1            CCCCOCCOCCOCc1cc2c(cc1CCC)OCO2  rodent lifetime carcinogenesis bioassay, tumor incidence TD50            TD50          34.8
2  CCCCCCCCS(=O)C(C)Cc1ccc2c(c1)OCO2 (centres undefined)  rodent lifetime carcinogenesis bioassay, tumor incidence TD50            TD50           9.1
3  Clc1ccc(C(c2ccccc2Cl)C(Cl)Cl)cc1 (centres undefined)  rodent lifetime carcinogenesis bioassay, tumor incidence TD50            TD50          82.1

Continue with the next molecule.
GET /value?item= `N#CN` &field=TD50 returns 30.9

---

Quick reference for TD50 among some compounds
system: rodent lifetime carcinogenesis bioassay, tumor incidence TD50; assay: carcinogenic potency in animals, long-term in vivo studies, CPDB compilation (AID 1745844); conditions: mouse; strain B6C3F1; males; oral dosing; site: liver; lesion: hepatoma; dosed 76 weeks; study length 76 weeks
Calls of active or inactive are those of the source. The rule behind the calls is not given here.

Example entries and their recorded answers appear below.
> print(dat)
                             compound                     result
1  Clc1ccc(C(c2ccc(Cl)cc2)C(Cl)Cl)cc1             43.3 mg/kg/day
2                  S=c1[nH]c2ccccc2s1  56.2 mg/kg/day (inactive)
3         CN(C)C(=O)Nc1ccc(Cl)c(Cl)c1  1150 mg/kg/day (inactive)

GET /value?item= Clc1ccc(C(c2ccccc2Cl)C(Cl)Cl)cc1 (stereo unspecified) &field=TD50 returns 147 mg/kg/day

---

test system: rodent lifetime carcinogenesis bioassay, tumor incidence TD50; assay: carcinogenic potency in animals, long-term in vivo studies, CPDB compilation (AID 1745844); conditions: mouse; strain B6C3F1; males; by gavage; site: lung; lesion: alveolar/bronchiolar adenoma + alveolar/bronchiolar carcinoma; dosed 103 weeks; study length 104 weeks
Mark MET only when TD50 stays strictly below 1000 mg/kg/day. Values equal to the cut-off are NOT MET.

> print(dat)
                                   compound  category
1                              Cc1cccc(C)c1   NOT MET
2  CC(=O)OC1CC(C)OC(C)O1 (stereo unspecified)   NOT MET
3                          O=c1ccc2ccccc2o1       MET
4                                O=Cc1ccco1       MET
5        CCCN(CCC)S(=O)(=O)c1ccc(C(=O)O)cc1   NOT MET

IN: Hello, is TD50 of the following compound strictly smaller than 1000 mg/kg/day? `S=[Se]`
OUT: MET

IN: Hello, is TD50 of the following compound strictly smaller than 1000 mg/kg/day? `CN(C)c1ccccc1`
OUT: MET

IN: Hello, is TD50 of the following compound strictly smaller than 1000 mg/kg/day? `O=CCC=O`
OUT: NOT MET

IN: Hello, is TD50 of the following compound strictly smaller than 1000 mg/kg/day? `O=C1CCc2ccccc2O1`
OUT: NOT MET

IN: Hello, is TD50 of the following compound strictly smaller than 1000 mg/kg/day? `O=[N+]([O-])c1ccc(Nc2ccc(Nc3ccccc3)c(S(=O)(=O)O)c2)c([N+](=O)[O-])c1`
OUT: NOT MET

IN: Hello, is TD50 of the following compound strictly smaller than 1000 mg/kg/day? `ClCC(Cl)(Cl)Cl`
OUT: NOT MET

---

test system: rodent lifetime carcinogenesis bioassay, tumor incidence TD50; test: carcinogenic potency in animals, long-term in vivo studies, CPDB compilation (AID 1745844); settings: mouse; strain B6C3F1; females; by gavage; site: liver; lesion: hepatocellular adenoma + hepatocellular carcinoma + neoplastic nodule; dosed 103 weeks; study length 105 weeks
reportedMetric: TD50

Example entries and their recorded answers appear below.
> print(dat)
                                   compound          result
1  c1cc(OCC2CO2)cc(OCC2CO2)c1 (stereo not drawn)   169 mg/kg/day
2                              Oc1ccc(O)cc1   122 mg/kg/day
3                                    CCCCCl  1380 mg/kg/day

GET /value?item= `O=P(O)(O)O` &field=TD50 returns 3710 mg/kg/day

GET /value?item= `Nc1ccc(Cl)cc1` &field=TD50 returns 176 mg/kg/day

GET /value?item= CC(I)C1OCC(CO)O1 (stereo not drawn) &field=TD50 returns 373 mg/kg/day

GET /value?item= `Clc1ccccc1` &field=TD50 returns 235 mg/kg/day

GET /value?item= CC(Cl)CCl (stereo not drawn) &field=TD50 returns 346 mg/kg/day

---

system: rodent lifetime carcinogenesis bioassay, tumor incidence TD50; assay: carcinogenic potency in animals, long-term in vivo studies, CPDB compilation (AID 1745844); conditions: rat; strain Fischer 344; males; by gavage; site: liver; lesion: hepatocellular adenoma + hepatocellular carcinoma + neoplastic nodule; dosed 103 weeks; study length 104 weeks
reportedMetric: TD50 (mg/kg/day)
Report the value in mg/kg/day with no unit label.

> print(dat)
                          compound  numericvalue
1                   ClCC(Cl)(Cl)Cl          1130
2  C=CC1CC=CCC1 (stereo not drawn)        132000
3                     Oc1ccc(O)cc1          5710

Here `O=CCC=O` was tested on rodent lifetime carcinogenesis bioassay, tumor incidence TD50, and its TD50 came to 665

Here CN(C)CCC(c1ccc(Cl)cc1)c1ccccn1 (stereo not drawn) was tested on rodent lifetime carcinogenesis bioassay, tumor incidence TD50, and its TD50 came to 208

Here `S=[Se]` was tested on rodent lifetime carcinogenesis bioassay, tumor incidence TD50, and its TD50 came to 11.5

---

test system: rodent lifetime carcinogenesis bioassay, tumor incidence TD50; test: carcinogenic potency in animals, long-term in vivo studies, CPDB compilation (AID 1745844); details: mouse; strain B6C3F1; males; oral dosing; site: any site (literature study); lesion: several types; types named in the paper; dosed 76 weeks; study length 76 weeks
The source made the active and inactive calls. No rule for the calls is given here.
Quick reference for TD50 among some compounds

> print(dat)
                                   compound                      result
1                     NC(=O)Cc1cccc2ccccc12    141 mg/kg/day (inactive)
2               CN(C)C(=O)Nc1ccc(Cl)c(Cl)c1    361 mg/kg/day (inactive)
3        Clc1ccc(C(c2ccc(Cl)cc2)C(Cl)Cl)cc1              34.8 mg/kg/day
4                        S=c1[nH]c2ccccc2s1     17 mg/kg/day (inactive)
5  ClC1=C(Cl)C2(Cl)C3C(Cl)OC(Cl)C3C1(Cl)C2(Cl)Cl (stereo not drawn)  0.242 mg/kg/day (inactive)

GET /value?item= CC=CC(=O)Oc1c(C(C)CCCCCC)cc([N+](=O)[O-])cc1[N+](=O)[O-] (stereo not drawn) &field=TD50 returns 0.405 mg/kg/day (inactive)

GET /value?item= CCCOC(=O)C1c2cc3c(cc2CC(C)C1C(=O)OCCC)OCO3 (stereo not drawn) &field=TD50 returns 374 mg/kg/day (inactive)

GET /value?item= `CCCCOC(=O)COc1ccc(Cl)cc1Cl` &field=TD50 returns 38.1 mg/kg/day (inactive)

---

test system: rodent lifetime carcinogenesis bioassay, tumor incidence TD50; experiment: carcinogenic potency in animals, long-term in vivo studies, CPDB compilation (AID 1745844); settings: mouse; strain B6C3F1; males; oral dosing; site: lung; lesion: adenoma; dosed 76 weeks; study length 76 weeks
Active and inactive are the calls of the source. How the calls were made is not given here.
reportedMetric: TD50

Example entries and their recorded answers appear below.
> print(dat)
                          chemicalstructure                                systemname                    result
1                  c1ccc2sc(SN3CCOCC3)nc2c1  rodent lifetime carcinogenesis bioassay, tumor incidence TD50  556 mg/kg/day (inactive)
2  c1ccc2cc(Nc3ccc(Nc4ccc5ccccc5c4)cc3)ccc2c1  rodent lifetime carcinogenesis bioassay, tumor incidence TD50  192 mg/kg/day (inactive)

GET /value?item= `CC(=O)[O][Sn]([c]1ccccc1)([c]1ccccc1)[c]1ccccc1` &field=TD50 returns 262 mg/kg/day (inactive)

GET /value?item= `C=C(C)C(=O)Nc1ccc(Cl)c(Cl)c1` &field=TD50 returns 23.7 mg/kg/day (inactive)
